Molecular target: Gal(a1-3)Gal(b1-3)[Fuc(a1-4)]GlcNAc(b1-2)Man(a1-3)[Gal(a1-3)Gal(b1-3)[Fuc(a1-4)]GlcNAc(b1-2)Man(a1-6)]Man(b1-4)GlcNAc(b1-4)GlcNAc
Assay: glycan array binding signal (z-score within array); higher = stronger binding
Conditions: glycan notation: IUPAC condensed, linker removed
Shown is part of a subset that was picked to be rich in the strongest signals.
valueType: glycan array binding signal (z-score)
Please give only the number in your answer, with no unit.

Here is how some binders turned out for glycan array binding signal (z-score).
[[record]]
binder = "CpGal16 (Clavelina picta) (protein) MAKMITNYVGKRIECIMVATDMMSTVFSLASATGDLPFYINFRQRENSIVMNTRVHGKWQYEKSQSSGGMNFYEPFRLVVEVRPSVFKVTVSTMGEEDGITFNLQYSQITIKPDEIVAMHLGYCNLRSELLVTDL"
obsvalue = -0.202

[[record]]
binder = "Sp8391B-bot-388-20-388 (Bacteroides ovatus) (protein) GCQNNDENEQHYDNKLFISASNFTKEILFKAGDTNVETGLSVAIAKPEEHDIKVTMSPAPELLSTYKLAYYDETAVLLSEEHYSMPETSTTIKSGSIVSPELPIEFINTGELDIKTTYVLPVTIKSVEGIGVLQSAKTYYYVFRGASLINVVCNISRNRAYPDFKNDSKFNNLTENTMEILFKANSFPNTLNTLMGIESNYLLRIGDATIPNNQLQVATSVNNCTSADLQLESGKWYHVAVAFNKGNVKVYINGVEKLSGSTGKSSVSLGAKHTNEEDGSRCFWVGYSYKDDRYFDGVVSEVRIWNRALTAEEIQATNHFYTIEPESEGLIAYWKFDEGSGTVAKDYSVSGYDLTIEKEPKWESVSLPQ"
obsvalue = 8.13

[[record]]
binder = "EULS2 M2 (Oryza sativa) (protein) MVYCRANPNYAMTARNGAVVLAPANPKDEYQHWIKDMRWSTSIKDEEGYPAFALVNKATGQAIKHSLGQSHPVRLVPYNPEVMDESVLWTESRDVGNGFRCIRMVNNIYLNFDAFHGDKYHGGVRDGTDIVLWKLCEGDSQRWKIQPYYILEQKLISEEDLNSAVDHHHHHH"
obsvalue = 0.228

[[record]]
binder = "Thrombomodulin (Mus musculus) (protein) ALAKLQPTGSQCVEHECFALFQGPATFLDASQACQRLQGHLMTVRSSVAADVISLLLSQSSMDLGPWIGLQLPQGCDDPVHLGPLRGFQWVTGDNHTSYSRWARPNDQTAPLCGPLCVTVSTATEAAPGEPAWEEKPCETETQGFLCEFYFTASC"
obsvalue = 0.179

[[record]]
binder = "MGL1 (Mus musculus), P49300 (protein) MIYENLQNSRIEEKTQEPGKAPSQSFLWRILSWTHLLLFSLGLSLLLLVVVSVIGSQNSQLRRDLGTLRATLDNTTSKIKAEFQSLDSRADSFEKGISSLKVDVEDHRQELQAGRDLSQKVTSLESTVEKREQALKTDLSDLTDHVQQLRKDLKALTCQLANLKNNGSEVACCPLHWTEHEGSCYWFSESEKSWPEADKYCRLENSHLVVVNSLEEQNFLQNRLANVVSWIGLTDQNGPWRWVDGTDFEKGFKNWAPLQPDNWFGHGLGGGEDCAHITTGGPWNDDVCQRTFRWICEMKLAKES"
obsvalue = -0.177


Next up:
Data request, read-out glycan array binding signal (z-score), for MGL6A (Homo sapiens) (protein) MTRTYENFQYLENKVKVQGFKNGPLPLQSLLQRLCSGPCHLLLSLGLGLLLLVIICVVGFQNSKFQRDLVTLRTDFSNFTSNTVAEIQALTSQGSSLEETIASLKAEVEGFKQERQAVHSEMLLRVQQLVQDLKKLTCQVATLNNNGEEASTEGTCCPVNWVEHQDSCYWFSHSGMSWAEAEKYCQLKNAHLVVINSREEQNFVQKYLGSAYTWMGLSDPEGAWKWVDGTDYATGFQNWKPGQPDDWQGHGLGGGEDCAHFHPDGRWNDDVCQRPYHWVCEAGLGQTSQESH -0.221

Provenance of the data: the supplement of paper PMC8728848
